measuredOn: Nuclear receptor subfamily 1 group D member 1 (Homo sapiens) (UniProt P20393)
assayProtocol: Agonist activity at Rev-Erbalpha expressed in HEK293 cells coexpressing […] promoter assessed as repression of transcription at 10 uM after 24 hrs by dual-Glo luciferase assay relative to control
Format: functional, cell-based
assayEndpoint: Ratio

Worked cases, answers included:
> print(dat)
                                   molecule                                measuredon  quantitativereadout
1  O=[N+]([O-])c1ccc(CN(Cc2ccc(Cl)cc2)CC2CCN(S(=O)(=O)c3cccc4ccccc34)C2)s1 (racemic)  Nuclear receptor subfamily 1 group D member 1 (Homo sapiens) (UniProt P20393)                 0.45
2  CC(C)(C)OC(=O)CN(Cc1ccccc1)Cc1ccc([N+](=O)[O-])s1  Nuclear receptor subfamily 1 group D member 1 (Homo sapiens) (UniProt P20393)                  1.1

(a) O=[N+]([O-])c1ccc(CN(Cc2ccc(Cl)cc2)Cc2nc3ccccc3s2)s1
(b) CC(C)(C)OC(=O)N1CCCC(N(Cc2ccc(Cl)cc2)Cc2ccc([N+](=O)[O-])s2)C1 (racemic)
(c) CS(=O)(=O)n1ccc(CN(Cc2ccc(Cl)cc2)Cc2ccc([N+](=O)[O-])s2)c1
(d) CC(C)(C)OC(=O)N1CCC(CN(Cc2ccc(Cl)cc2)Cc2ccc([N+](=O)[O-])s2)C1 (racemic)
# input Rank items: key Ratio, increasing. Please list each label once, in the requested order.
# output b, d, a, c
(b: 0.14, d: 0.33, a: 0.5, c: 1)

---

measuredOn: Nuclear receptor subfamily 1 group D member 1 (Homo sapiens)
Sequence (whole entry): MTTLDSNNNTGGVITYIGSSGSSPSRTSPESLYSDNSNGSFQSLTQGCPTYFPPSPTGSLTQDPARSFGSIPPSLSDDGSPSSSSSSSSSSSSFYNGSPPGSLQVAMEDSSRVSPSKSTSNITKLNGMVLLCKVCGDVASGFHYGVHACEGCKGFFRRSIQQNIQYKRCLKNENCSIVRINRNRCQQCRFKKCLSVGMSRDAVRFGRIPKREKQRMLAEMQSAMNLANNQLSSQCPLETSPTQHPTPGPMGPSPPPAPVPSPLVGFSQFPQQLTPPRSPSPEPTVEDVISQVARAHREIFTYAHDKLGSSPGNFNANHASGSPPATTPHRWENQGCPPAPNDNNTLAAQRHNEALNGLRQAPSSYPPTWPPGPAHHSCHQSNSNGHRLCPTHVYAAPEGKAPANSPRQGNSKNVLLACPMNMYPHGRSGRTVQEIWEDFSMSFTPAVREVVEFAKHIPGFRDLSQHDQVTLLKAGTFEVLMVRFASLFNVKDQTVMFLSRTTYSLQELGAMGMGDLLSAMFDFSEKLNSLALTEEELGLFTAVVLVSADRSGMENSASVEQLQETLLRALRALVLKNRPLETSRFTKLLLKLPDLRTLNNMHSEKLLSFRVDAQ
assayProtocol: Agonist activity at Rev-Erbalpha expressed in HEK293 cells coexpressing […] promoter assessed as repression of transcription at 10 uM after 24 hrs by dual-Glo luciferase assay relative to control
Assay type: functional, cell-based
assayEndpoint: Ratio

Some molecules with recorded Ratio:
> print(dat)
                                   molecule  quantitativereadout
1   CC(C)(C)OC(=O)CN(Cc1ccc(Cl)cc1)Cc1cccs1                 0.93
2  N#CCN(Cc1ccc(Cl)cc1)Cc1ccc([N+](=O)[O-])s1                 0.79
3  O=[N+]([O-])c1ccc(CN(Cc2ccc(Cl)cc2)Cc2ccc3ccccc3c2)s1                  0.7
4  O=C(c1cccc2ccccc12)N(Cc1ccc(Cl)cc1)Cc1ccc([N+](=O)[O-])s1                  0.4
5  CC(C)(C)OC(=O)N1CCC(N(Cc2ccc(Cl)cc2)Cc2ccc([N+](=O)[O-])s2)CC1                 0.31

(1) CC(C)(C)OC(=O)CN(Cc1ccc([N+](=O)[O-])s1)Cc1cccc2ccccc12
(2) CC(=O)N1CCC(CN(Cc2ccc(Cl)cc2)Cc2ccc([N+](=O)[O-])s2)C1 (racemic)
(3) CN1CCC(CN(Cc2ccc(Cl)cc2)Cc2ccc([N+](=O)[O-])s2)C1 (racemic)
# input Sort by Ratio, descending. As an answer, provide the labels arranged in the order called for.
# output 3, 1, 2

FYI, the data here is from ChEMBL document CHEMBL2057134.
